# measured_on: Phosphatidylinositol 4,5-bisphosphate 3-kinase catalytic subunit beta isoform (Homo sapiens)
# assay_name: Inhibition of PI3K beta by continuous TR-FRET assay
pIC50: −log10 of the molar value.
experimental_endpoint: pIC50

(P) Cc1c(Cl)cccc1Cn1c(C)nc(=O)c2sc(N3CCOCC3)nc21
(Q) O=c1ncn(Cc2ccccc2Cl)c2nc(N3CCOCC3)sc12
(R) O=c1ncn(Cc2cccc(Cl)c2Cl)c2nc(N3CCOCC3)sc12
Query: Please sort the compounds listed above from highest to lowest pIC50. Sort and list the labels as requested.
Reply: P, R, Q
(P: 9.30, R: 8.00, Q: 6.80)

* * *

# measured_on: Phosphatidylinositol 4,5-bisphosphate 3-kinase catalytic subunit beta isoform (Homo sapiens, UniProt P42338)
# Sequence (P42338 whole entry, canonical isoform): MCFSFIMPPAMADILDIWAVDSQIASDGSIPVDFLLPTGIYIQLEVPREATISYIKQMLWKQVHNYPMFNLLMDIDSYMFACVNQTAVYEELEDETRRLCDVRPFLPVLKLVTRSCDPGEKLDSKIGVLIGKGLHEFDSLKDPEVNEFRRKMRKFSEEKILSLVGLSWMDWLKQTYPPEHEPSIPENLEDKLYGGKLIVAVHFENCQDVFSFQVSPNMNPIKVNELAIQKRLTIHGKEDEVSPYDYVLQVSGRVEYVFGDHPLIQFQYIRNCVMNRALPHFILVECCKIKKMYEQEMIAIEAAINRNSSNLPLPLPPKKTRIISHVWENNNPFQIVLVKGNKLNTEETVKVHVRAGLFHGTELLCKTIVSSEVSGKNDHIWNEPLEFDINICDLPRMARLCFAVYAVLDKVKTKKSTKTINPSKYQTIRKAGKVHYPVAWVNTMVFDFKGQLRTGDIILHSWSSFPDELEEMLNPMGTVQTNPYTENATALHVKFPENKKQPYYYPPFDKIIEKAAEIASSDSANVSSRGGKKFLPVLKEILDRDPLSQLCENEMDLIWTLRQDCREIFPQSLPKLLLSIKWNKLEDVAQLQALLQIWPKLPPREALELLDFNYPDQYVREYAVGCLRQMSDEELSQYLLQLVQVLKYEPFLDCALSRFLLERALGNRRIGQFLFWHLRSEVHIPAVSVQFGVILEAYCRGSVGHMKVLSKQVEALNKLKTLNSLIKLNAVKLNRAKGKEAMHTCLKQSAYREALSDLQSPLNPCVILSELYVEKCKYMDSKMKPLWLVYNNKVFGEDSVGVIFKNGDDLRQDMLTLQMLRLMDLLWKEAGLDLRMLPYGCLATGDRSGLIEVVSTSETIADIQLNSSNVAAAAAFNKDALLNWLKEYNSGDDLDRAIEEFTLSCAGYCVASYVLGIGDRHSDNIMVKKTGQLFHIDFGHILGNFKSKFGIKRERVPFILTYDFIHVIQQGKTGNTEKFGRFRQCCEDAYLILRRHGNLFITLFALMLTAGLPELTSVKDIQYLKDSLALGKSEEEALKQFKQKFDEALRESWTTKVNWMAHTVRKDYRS
# assay_name: Inhibition of PI3K beta in human PTEN-deficient MDA-MB-468 cells assessed as inhibition of Akt Ser473 phosphorylation
pEC50: −log10 of the molar value.
experimental_endpoint: pEC50

>>> reported("Cc1c(Cn2c(C3CC3)nc(=O)c3sc(N4CCOCC4)nc32)cccc1C(F)(F)F")
8.05
>>> reported("COc1nc(=O)c2sc(N3CCOCC3)nc2n1Cc1cccc(Cl)c1C")
8.22
>>> reported("Cc1c(Cn2c(C)nc(=O)c3sc(N4CCOCC4)nc32)cccc1C(F)(F)F")
7.62
>>> reported("Cc1c(Cl)cccc1Cn1c(CO)nc(=O)c2sc(N3CCOCC3)nc21")
8.22

(1) Cc1c(Cl)cccc1Cn1c(C)nc(=O)c2sc(N3CCOCC3)nc21
(2) Cc1c(Cl)cccc1Cn1c(N)nc(=O)c2sc(N3CCOCC3)nc21
Query: Which has the higher pEC50, 1 or 2 ? Selection: enter the item's label.
Reply: 2
(2: 8.52, 1: 7.72)

* * *

# measured_on: Phosphatidylinositol 4,5-bisphosphate 3-kinase catalytic subunit beta isoform (Homo sapiens, UniProt P42338)
# assay_name: Inhibition of PI3K beta by continuous TR-FRET assay
pIC50: −log10 of the molar value.
experimental_endpoint: pIC50

>>> reported("O=c1ncn(Cc2ccccc2)c2nc(N3CCOCC3)sc12")
6.49
>>> reported("Cc1c(Cn2c(-c3ccccc3)nc(=O)c3sc(N4CCOCC4)nc32)cccc1C(F)(F)F")
7.30
>>> reported("O=c1ncn(Cc2cccc(Cl)c2)c2nc(N3CCOCC3)sc12")
7.10
>>> reported("Cc1c(Cl)cccc1Cn1c(N)nc(=O)c2sc(N3CCOCC3)nc21")
9.70
>>> reported("Cc1c(Cn2c(CN)nc(=O)c3sc(N4CCOCC4)nc32)cccc1C(F)(F)F")
8.52

(1) Cc1c(Cl)cccc1Cn1c(=O)[nH]c(=O)c2sc(N3CCOCC3)nc21
(2) Cc1c(Cl)cccc1Cn1c(CO)nc(=O)c2sc(N3CCOCC3)nc21
(3) O=c1ncn(CCc2ccccc2)c2nc(N3CCOCC3)sc12
Query: Hey, quick one: sort these by pIC50, low to high? Sort and list the labels as requested.
Reply: 3, 1, 2

(P) CC(c1ccccc1)n1cnc(=O)c2sc(N3CCOCC3)nc21 (configuration not stated)
(Q) Cc1c(Cn2c(Cc3ccccc3)nc(=O)c3sc(N4CCOCC4)nc32)cccc1C(F)(F)F
Query: Which has the higher pIC50, P or Q ? Selection: enter the item's label.
Reply: Q
(Q: 8.52, P: 6.40)

(a) Cc1c(Cn2c(CO)nc(=O)c3sc(N4CCOCC4)nc32)cccc1C(F)(F)F
(b) O=c1ncn(Cc2ccsc2Cl)c2nc(N3CCOCC3)sc12
Query: Consider entries a and b . Which has the numerically lower pIC50? Selection: enter the item's label.
Reply: b
(b: 6.10, a: 9.70)

* * *

# measured_on: Phosphatidylinositol 4,5-bisphosphate 3-kinase catalytic subunit alpha isoform (Homo sapiens)
# Sequence (P42336 whole entry, canonical isoform): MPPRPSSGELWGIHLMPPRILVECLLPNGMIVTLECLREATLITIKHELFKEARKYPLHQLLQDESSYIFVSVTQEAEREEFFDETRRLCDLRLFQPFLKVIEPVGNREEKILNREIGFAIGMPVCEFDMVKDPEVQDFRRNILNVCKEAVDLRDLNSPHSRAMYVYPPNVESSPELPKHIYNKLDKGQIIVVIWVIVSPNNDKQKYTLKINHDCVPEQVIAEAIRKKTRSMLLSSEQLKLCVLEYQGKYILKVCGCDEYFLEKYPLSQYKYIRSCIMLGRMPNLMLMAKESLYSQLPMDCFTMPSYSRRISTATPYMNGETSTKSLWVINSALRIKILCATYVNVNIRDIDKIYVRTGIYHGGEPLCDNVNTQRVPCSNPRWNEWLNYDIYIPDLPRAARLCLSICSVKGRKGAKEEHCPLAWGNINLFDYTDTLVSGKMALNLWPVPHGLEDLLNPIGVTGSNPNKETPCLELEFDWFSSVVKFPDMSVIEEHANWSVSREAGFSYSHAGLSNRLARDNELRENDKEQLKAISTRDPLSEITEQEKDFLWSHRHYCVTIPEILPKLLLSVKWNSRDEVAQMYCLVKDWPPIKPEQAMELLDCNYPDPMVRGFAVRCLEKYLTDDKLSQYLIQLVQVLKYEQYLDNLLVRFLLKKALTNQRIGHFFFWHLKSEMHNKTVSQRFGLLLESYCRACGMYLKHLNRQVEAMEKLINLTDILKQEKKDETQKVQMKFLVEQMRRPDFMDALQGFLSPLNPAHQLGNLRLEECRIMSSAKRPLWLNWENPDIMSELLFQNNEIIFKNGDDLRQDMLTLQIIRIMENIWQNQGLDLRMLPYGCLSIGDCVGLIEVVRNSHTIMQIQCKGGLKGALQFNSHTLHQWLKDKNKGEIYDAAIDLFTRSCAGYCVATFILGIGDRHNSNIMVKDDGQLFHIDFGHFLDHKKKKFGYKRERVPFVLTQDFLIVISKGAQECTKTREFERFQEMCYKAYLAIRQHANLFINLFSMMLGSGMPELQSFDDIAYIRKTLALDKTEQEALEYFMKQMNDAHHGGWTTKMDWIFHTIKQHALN
# assay_name: Inhibition of PI3K alpha by continuous TR-FRET assay
experimental_endpoint: IC50 (nM)

>>> reported("O=c1ncn(Cc2ccccc2Cl)c2nc(N3CCOCC3)sc12")
2500
>>> reported("Cc1c(Cn2c(C)nc(=O)c3sc(N4CCOCC4)nc32)cccc1C(F)(F)F")
2500

* * *

# assay_name: Oral bioavailability in CD mouse at 100 mg/kg
# Format: ADME, organism-based
# conditions: in vivo
experimental_endpoint: bioavailability (%)

>>> reported("Cc1c(Cn2c(C)nc(=O)c3sc(N4CCOCC4)nc32)cccc1C(F)(F)F")
49

(P) Cc1c(Cl)cccc1Cn1c(CO)nc(=O)c2sc(N3CCOCC3)nc21
(Q) Cc1c(Cn2c(C3CC3)nc(=O)c3sc(N4CCOCC4)nc32)cccc1C(F)(F)F
Query: Which has the higher bioavailability, P or Q ? Selection: enter the item's label.
Reply: Q
(Q: 54%, P: 21%)

* * *

# measured_on: Phosphatidylinositol 4,5-bisphosphate 3-kinase catalytic subunit gamma isoform (Homo sapiens, UniProt P48736)
# Sequence (P48736 whole entry, canonical isoform): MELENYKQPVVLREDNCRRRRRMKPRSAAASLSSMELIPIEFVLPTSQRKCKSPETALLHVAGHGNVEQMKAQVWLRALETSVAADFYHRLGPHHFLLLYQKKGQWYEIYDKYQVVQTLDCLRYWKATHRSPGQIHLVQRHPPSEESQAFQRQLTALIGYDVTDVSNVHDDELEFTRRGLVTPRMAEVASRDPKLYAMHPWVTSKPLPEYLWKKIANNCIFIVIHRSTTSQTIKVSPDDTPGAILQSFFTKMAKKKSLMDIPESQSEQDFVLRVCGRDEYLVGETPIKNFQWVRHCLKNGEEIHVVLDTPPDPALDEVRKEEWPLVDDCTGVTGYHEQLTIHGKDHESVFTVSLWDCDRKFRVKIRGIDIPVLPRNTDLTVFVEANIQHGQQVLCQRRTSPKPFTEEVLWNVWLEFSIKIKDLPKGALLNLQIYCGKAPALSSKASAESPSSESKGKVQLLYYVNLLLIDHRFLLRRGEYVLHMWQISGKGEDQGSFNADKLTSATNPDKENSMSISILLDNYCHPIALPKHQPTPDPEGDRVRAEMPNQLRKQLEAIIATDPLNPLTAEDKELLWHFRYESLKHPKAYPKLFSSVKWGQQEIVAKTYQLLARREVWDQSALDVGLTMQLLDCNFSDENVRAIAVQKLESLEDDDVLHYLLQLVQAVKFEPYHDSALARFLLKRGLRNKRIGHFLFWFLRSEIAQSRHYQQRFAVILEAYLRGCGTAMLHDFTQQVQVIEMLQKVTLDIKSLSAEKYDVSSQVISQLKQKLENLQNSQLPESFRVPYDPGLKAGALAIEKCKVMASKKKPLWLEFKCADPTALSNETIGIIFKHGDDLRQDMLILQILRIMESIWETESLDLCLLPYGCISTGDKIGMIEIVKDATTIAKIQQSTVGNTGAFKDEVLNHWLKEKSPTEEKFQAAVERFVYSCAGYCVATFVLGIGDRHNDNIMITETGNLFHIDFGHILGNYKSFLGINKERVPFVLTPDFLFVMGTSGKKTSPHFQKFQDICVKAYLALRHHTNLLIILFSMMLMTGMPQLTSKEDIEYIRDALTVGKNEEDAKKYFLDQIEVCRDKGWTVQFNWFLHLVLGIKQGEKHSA
# assay_name: Inhibition of PI3K gamma by continuous TR-FRET assay
experimental_endpoint: IC50 (µM)

>>> reported("Cc1c(Cn2c(C3CC3)nc(=O)c3sc(N4CCOCC4)nc32)cccc1C(F)(F)F")
1

(a) CCc1nc(=O)c2sc(N3CCOCC3)nc2n1Cc1cccc(C(F)(F)F)c1C
(b) Cc1c(Cn2c(C)nc(=O)c3sc(N4CCOCC4)nc32)cccc1C(F)(F)F
Query: Which has the higher IC50, a or b ? Selection: enter the item's label.
Reply: a
(a: 1.3 µM, b: 0.79 µM)

* * *

# measured_on: Phosphatidylinositol 4,5-bisphosphate 3-kinase catalytic subunit alpha isoform (Homo sapiens)
# assay_name: Inhibition of PI3K alpha by continuous TR-FRET assay
experimental_endpoint: IC50

Reference set, count: 4
>>> reported("CC(c1ccccc1)n1cnc(=O)c2sc(N3CCOCC3)nc21 (stereo not given)")
"> 4 µM"
>>> reported("Cc1c(Cn2c(CN)nc(=O)c3sc(N4CCOCC4)nc32)cccc1C(F)(F)F")
"> 2.5 µM"
>>> reported("O=c1ncn(CCc2ccccc2)c2nc(N3CCOCC3)sc12")
"> 2 µM"
>>> reported("CCc1nc(=O)c2sc(N3CCOCC3)nc2n1Cc1cccc(C(F)(F)F)c1C")
"> 4 µM"

Please find the next compound below.
Query: What value of measured IC50 is listed for O=c1ncn(Cc2cccc(Cl)c2)c2nc(N3CCOCC3)sc12 ?
Reply: > 3.2 µM

* * *

# measured_on: Phosphatidylinositol 4,5-bisphosphate 3-kinase catalytic subunit delta isoform (Homo sapiens)
# Sequence (O00329 whole entry): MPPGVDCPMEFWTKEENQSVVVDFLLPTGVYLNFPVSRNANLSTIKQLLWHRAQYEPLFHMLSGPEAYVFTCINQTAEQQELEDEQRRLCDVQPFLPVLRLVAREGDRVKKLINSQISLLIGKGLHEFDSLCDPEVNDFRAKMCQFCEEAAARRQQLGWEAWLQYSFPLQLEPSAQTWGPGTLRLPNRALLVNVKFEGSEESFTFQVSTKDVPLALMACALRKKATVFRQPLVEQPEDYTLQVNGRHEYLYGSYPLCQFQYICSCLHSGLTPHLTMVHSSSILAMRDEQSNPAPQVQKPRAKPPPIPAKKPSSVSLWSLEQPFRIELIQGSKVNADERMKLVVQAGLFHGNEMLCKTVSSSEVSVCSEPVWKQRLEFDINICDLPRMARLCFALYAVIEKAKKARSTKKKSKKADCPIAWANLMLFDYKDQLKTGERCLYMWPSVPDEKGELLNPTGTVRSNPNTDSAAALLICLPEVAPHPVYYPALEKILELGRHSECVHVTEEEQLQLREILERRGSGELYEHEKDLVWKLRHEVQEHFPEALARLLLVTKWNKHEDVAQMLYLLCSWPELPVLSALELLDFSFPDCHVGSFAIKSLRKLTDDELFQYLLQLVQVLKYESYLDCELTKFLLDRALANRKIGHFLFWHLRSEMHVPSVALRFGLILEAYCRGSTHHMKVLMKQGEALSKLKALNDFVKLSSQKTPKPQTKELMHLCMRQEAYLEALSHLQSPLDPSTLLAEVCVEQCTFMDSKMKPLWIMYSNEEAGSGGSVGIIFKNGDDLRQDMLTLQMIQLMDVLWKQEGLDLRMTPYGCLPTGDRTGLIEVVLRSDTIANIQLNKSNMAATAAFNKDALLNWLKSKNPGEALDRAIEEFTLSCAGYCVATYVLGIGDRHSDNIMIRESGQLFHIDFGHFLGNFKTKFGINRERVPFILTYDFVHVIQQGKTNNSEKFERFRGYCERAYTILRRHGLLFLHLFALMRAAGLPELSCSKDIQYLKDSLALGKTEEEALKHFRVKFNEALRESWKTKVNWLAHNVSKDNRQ
# assay_name: Inhibition of PI3K delta by continuous TR-FRET assay
experimental_endpoint: IC50 (nM)

Reference set, count: 5
>>> reported("Cc1c(Cn2c(CO)nc(=O)c3sc(N4CCOCC4)nc32)cccc1C(F)(F)F")
3
>>> reported("O=c1ncn(Cc2cccc(Cl)c2Cl)c2nc(N3CCOCC3)sc12")
79
>>> reported("Cc1c(Cl)cccc1Cn1c(SCC(=O)O)nc(=O)c2sc(N3CCOCC3)nc21")
2
>>> reported("Cc1c(Cl)cccc1Cn1c(=O)[nH]c(=O)c2sc(N3CCOCC3)nc21")
500
>>> reported("Cc1c(Cl)cccc1Cn1c(C)nc(=O)c2sc(N3CCOCC3)nc21")
10

(A) Cc1c(Cn2c(C3CC3)nc(=O)c3sc(N4CCOCC4)nc32)cccc1C(F)(F)F
(B) O=c1ncn(CCc2ccccc2)c2nc(N3CCOCC3)sc12
(C) O=c1ncn(Cc2ccccc2)c2nc(N3CCOCC3)sc12
(D) Cc1c(Cl)cccc1Cn1c(CO)nc(=O)c2sc(N3CCOCC3)nc21
Query: Arrange the 4 compounds from largest to smallest IC50. Sort and list the labels as requested.
Reply: C, B, A, D

The measurements presented in this section are drawn from ChEMBL document CHEMBL2086270.
